Values compiled from patent US4997854A.

pKi: recorded values
Tgt: lysyl oxidase (Bos taurus)
Construct: Lysyl oxidase was purified from bovine aorta as previously described; from tissue; host or cells: bovine aorta
Sequence (P33072 170-418): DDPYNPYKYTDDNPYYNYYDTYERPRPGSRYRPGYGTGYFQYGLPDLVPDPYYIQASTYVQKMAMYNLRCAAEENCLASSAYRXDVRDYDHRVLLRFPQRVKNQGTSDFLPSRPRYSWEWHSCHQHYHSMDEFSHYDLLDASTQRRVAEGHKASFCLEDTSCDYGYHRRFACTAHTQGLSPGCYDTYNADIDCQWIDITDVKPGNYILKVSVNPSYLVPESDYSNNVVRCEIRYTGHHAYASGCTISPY
Assay Explanation: Lysyl oxidase peroxidase-coupled fluorescence assay of n-hexylamine oxidation
Format: biochemical, bovine
Condition Summary: n-hexylamine substrate; competitive; read-out: KI, competitive inhibition of lysyl oxidase activity against n-hexylamine
// pKi is dimensionless: -log10 of concentration (M)

                                   molecule  endpoint_value
0  N[C@@H]1CCCC[C@@H]1N [cis-DACH, 1,2-Diaminocyclohexane]            6.42

Prompt: Entry under review: NCCN . Reported pKi?
Completion: 5.70

----------
Tgt: lysyl oxidase (Bos taurus)
Construct: Lysyl oxidase was purified from bovine aorta as previously described; from tissue; host or cells: bovine aorta
Assay Explanation: Lysyl oxidase peroxidase-coupled fluorescence assay of n-hexylamine oxidation
Assay type: biochemical, bovine
Condition Summary: as restated in the summary; read-out: KI
Parameter Measured: Ki (µM)
Please give a number only; it is taken to be in µM.

Prompt: What Ki appears in the records for this compound with lysyl oxidase (Bos taurus)? N[C@@H]1CCCC[C@@H]1N [cis-DACH, 1,2-Diaminocyclohexane]
Completion: 0.38

----------
Tgt: lysyl oxidase (Bos taurus)
Construct: Lysyl oxidase was purified from bovine aorta as previously described; from tissue; host or cells: bovine aorta
Assay Explanation: Lysyl oxidase peroxidase-coupled fluorescence assay of n-hexylamine oxidation
Assay type: biochemical, bovine
Condition Summary: n-hexylamine oxidation; read-out: I50 in assays of n-hexylamine oxidation
Parameter Measured: IC50 (nM)
Please give a number only; it is taken to be in nM.

Prompt: Entry under review: N[C@@H]1CCCC[C@@H]1N [cis-DACH, 1,2-Diaminocyclohexane] . Reported IC50?
Completion: 1500

----------
Tgt: lysyl oxidase (Bos taurus)
Construct: Lysyl oxidase was purified from bovine aorta as previously described; from tissue; host or cells: bovine aorta
Assay Explanation: Lysyl oxidase peroxidase-coupled fluorescence assay of n-hexylamine oxidation
Assay type: biochemical, bovine
Condition Summary: n-hexylamine oxidation; extrapolated; read-out: (extrapolated) I50 in assays of n-hexylamine oxidation
pIC50: −log10 of the molar value.
Parameter Measured: pIC50

Prompt: What pIC50 appears in the records for this compound with lysyl oxidase (Bos taurus)? N[C@@H]1CCCC[C@H]1N (relative stereo) [trans-DACH, 1,2-Diaminocyclohexane, reference compound]
Completion: < 2.00
